Provide the recorded DC50 for the entries that follow.
target-of-assay: HPK1 protein (Homo sapiens, UniProt Q92918)
Construct: host or cells: Jurkat cells
Sequence (Q92918 whole entry): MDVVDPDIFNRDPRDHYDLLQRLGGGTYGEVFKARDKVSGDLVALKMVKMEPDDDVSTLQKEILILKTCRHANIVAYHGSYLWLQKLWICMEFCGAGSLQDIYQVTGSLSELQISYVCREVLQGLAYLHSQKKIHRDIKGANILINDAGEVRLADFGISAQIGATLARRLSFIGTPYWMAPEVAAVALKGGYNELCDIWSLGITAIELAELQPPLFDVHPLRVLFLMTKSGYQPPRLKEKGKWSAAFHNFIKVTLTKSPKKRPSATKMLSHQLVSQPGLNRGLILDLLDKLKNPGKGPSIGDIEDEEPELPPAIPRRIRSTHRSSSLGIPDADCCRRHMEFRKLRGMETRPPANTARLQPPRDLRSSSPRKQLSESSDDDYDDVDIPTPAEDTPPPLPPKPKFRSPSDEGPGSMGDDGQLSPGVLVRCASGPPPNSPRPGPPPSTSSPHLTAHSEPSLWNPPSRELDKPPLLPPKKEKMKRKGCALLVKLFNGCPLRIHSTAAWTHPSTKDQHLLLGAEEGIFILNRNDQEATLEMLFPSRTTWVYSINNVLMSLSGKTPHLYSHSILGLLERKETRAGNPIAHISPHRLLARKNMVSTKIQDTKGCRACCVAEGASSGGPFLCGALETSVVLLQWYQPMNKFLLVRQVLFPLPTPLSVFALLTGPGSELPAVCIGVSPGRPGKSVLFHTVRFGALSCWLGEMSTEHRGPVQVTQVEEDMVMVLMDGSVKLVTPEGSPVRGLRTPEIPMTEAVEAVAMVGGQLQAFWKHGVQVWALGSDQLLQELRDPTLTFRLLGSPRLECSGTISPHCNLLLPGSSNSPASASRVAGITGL
assay-method-text: Detection of HPK1 protein expression level in Jurkat cells (24 h)
Format: cell-based
condition-parameters: 24 hours incubation
Where a name gives a salt, the structure may show the parent alone.

compound	DC50
O=C1CC[C@H](NC(=O)c2cc3c(cc2F)N2CCN(C4CCN(c5ccc(Nc6ccc(-c7cnc8cc(F)ccn78)c7c6C(=O)NC7)nc5)CC4)C[C@H]2CC3)C(=O)N1 [Trifluoroacetic acid salt of compound 42]	< 20 nM
O=C1CCC(c2cc3c(cc2F)N2CCN(CC4CCN(c5ccc(Nc6ccc(-c7cnc8cc(F)ccn78)c7c6C(=O)NC7)nc5)CC4)C[C@H]2CC3)C(=O)N1 (some centres unmarked) [Trifluoroacetic acid salt of compound 3]	< 20 nM
O=C1CCC(c2ccc(N3CCN(CC4CCN(c5ccc(Nc6ccc(-c7cnc8cc(F)ccn78)c7c6C(=O)NC7)nc5)CC4)CC3)cc2F)C(=O)N1 (racemic) [Trifluoroacetic acid salt of compound 1]	< 20 nM
O=C1CCN(c2cc3c(cc2F)N2CCN(C4CC5(CCN(c6ccc(Nc7ccc(-c8cnc9cc(F)ccn89)c8c7C(=O)NC8)nc6)CC5)C4)C[C@@H]2CC3)C(=O)N1 [Trifluoroacetic acid salt of compound 20]	< 20 nM

Okay, now this compound:
Qu. Consider the compound O=C1CCN(c2cc3c(cc2F)N2CCN(CC4CCN(c5ccc(Nc6ccc(-c7cnc8cc(F)ccn78)c7c6C(=O)NC7)nc5)CC4)C[C@H]2CC3)C(=O)N1 [Trifluoroacetic acid salt of compound 6] and give its recorded DC50.
Ans. < 20 nM

* * *

assay-method-text: Pharmacokinetic test in rats
Type: in vivo, SD rats
condition-parameters: rat, plasma, IV, 1 mg/kg
Structures can show the parent of a compound that is named as a salt.
test-readout: half-life (h)
One number for each entry, in h.

Qu. Consider the molecule N#Cc1ccn2c(-c3ccc(Nc4ccc(N5CCC(CN6CCN7c8cc(F)c(N9CCC(=O)NC9=O)cc8CC[C@@H]7C6)CC5)cn4)c4c3CNC4=O)cnc2c1 [Trifluoroacetic acid salt of compound 31] and give its recorded half-life.
Ans. 4.88

* * *

Provide the recorded log10 AUC for the entries that follow.
assay-method-text: Pharmacokinetic test in mice
Format: in vivo, ICR mice
condition-parameters: mouse, plasma, po, i. g., 10 mg/kg
Counter-ions that a name gives are not always drawn.
Short version: log10 scale, AUC, ng·h/mL.

compound	log10 AUC
N#Cc1ccn2c(-c3ccc(Nc4ccc(N5CCC6(CC5)CC(N5CCN7c8cc(F)c(N9CCC(=O)NC9=O)cc8CC[C@@H]7C5)C6)cn4)c4c3CNC4=O)cnc2c1	4.41
Cn1ccc2c(-c3ccc(Nc4ccc(N5CCC(CN6CCN7c8cc(F)c(N9CCC(=O)NC9=O)cc8CC[C@@H]7C6)CC5)cn4)c4c3CNC4=O)ccnc21 [Trifluoroacetic acid salt of compound 32]	4.20
O=C1CCN(c2cc3c(cc2F)N2CCN(C4CC5(CCN(c6ccc(Nc7ccc(-c8cnc9cc(F)ccn89)c8c7C(=O)NC8)nc6)CC5)C4)C[C@H]2CC3)C(=O)N1 [Trifluoroacetic acid salt of compound 19]	4.70

Please give log10 AUC for each item listed below.
1. O=C1CCN(c2cc3c(cc2F)N2CCN(CC4CCN(c5ccc(Nc6ccc(-c7cnc8cc(F)ccn78)c7c6C(=O)NC7)nc5)CC4)C[C@@H]2CC3)C(=O)N1
2. N#Cc1ccn2c(-c3ccc(Nc4ccc(N5CCC(CN6CCN7c8cc(F)c(N9CCC(=O)NC9=O)cc8CC[C@H]7C6)CC5)cn4)c4c3CNC4=O)cnc2c1 [Trifluoroacetic acid salt of compound 39]
3. O=C1CCN(c2cc3c(cc2F)N2CCN(C4CC5(CCN(c6ccc(Nc7ccc(-c8cnc9cc(F)ccn89)c8c7C(=O)NC8)nc6)CC5)C4)C[C@@H]2CC3)C(=O)N1 [Trifluoroacetic acid salt of compound 20]

Ans.
4.30
4.41
4.10

Please give log10 AUC for each item listed below.
1. O=C1CCN(c2cc3c(cc2F)N2CCN(CC4CC5(CCN(c6ccc(Nc7ccc(-c8cnc9cc(F)ccn89)c8c7C(=O)NC8)nc6)CC5)C4)C[C@@H]2CC3)C(=O)N1 [Trifluoroacetic acid salt of compound 15]
2. O=C1CCC(c2cc3c(cc2F)N2CCN(CC4CCN(c5ccc(Nc6ccc(-c7cnc8cc(F)ccn78)c7c6C(=O)NC7)nc5)CC4)C[C@@H]2CC3)C(=O)N1 (stereo partly shown) [Trifluoroacetic acid salt of compound 4]

Ans.
1: 4.37; 2: 4.18

Please give log10 AUC for each item listed below.
1. O=C1CC[C@H](NC(=O)c2cc3c(cc2F)N2CCN(CC4CCN(c5ccc(Nc6ccc(-c7cnc8cc(F)ccn78)c7c6C(=O)NC7)nc5)CC4)C[C@H]2CC3)C(=O)N1 [Trifluoroacetic acid salt of compound 8]
2. CN(C)Cc1nc(Nc2ccc(-c3cnc4cc(F)ccn34)c3c2C(=O)NC3)ccc1[C@@H]1CCOC1 [Control compound 1, reference compound]

Ans.
1. 4.26
2. 2.39

* * *

assay-method-text: Pharmacokinetic test in rats
Type: in vivo, SD rats
condition-parameters: rat, plasma, po, i. g., 5 mg/kg
Structures can show the parent of a compound that is named as a salt.
test-readout: Cmax (ng/mL)
One number for each entry, in ng/mL.

Qu. Consider the molecule N#Cc1ccn2c(-c3ccc(Nc4ccc(N5CCC(CN6CCN7c8cc(F)c(N9CCC(=O)NC9=O)cc8CC[C@@H]7C6)CC5)cn4)c4c3CNC4=O)cnc2c1 [Trifluoroacetic acid salt of compound 31] and give its recorded Cmax.
Ans. 464

* * *

assay-method-text: Pharmacokinetic test in rats
Format: in vivo, SD rats
condition-parameters: rat, plasma, IV, 2.5 mg/kg
Where a name gives a salt, the structure may show the parent alone.
test-readout: clearance
Answer format reminder: number followed by unit.

compound	clearance
O=C1CCN(c2cc3c(cc2F)N2CCN(C4CC5(CCN(c6ccc(Nc7ccc(-c8cnc9cc(F)ccn89)c8c7C(=O)NC8)nc6)CC5)C4)C[C@H]2CC3)C(=O)N1 [Trifluoroacetic acid salt of compound 19]	11 mL/min/kg

Qu. Consider the compound O=C1CCN(c2cc3c(cc2F)N2CCN(C4CC5(CCN(c6ccc(Nc7ccc(-c8cnc9cc(F)ccn89)c8c7C(=O)NC8)nc6)CC5)C4)C[C@@H]2CC3)C(=O)N1 [Trifluoroacetic acid salt of compound 20] and give its recorded clearance.
Ans. 13.4 mL/min/kg

* * *

target-of-assay: HPK1 kinase (Homo sapiens, UniProt Q92918)
Construct: purchased Carna 07-410
assay-method-text: HPK1 kinase assay (Km concentration ATP)
Type: biochemical
condition-parameters: Km concentration ATP; conclusion
Where a name gives a salt, the structure may show the parent alone.
test-readout: inhibitory activity against HPK1 kinase (in words)

compound	result
O=C1CCC(c2cc3c(cc2F)N2CCN(CC4CCN(c5ccc(Nc6ccc(-c7cnc8cc(F)ccn78)c7c6C(=O)NC7)nc5)CC4)C[C@H]2CC3)C(=O)N1 (stereo partly drawn) [Trifluoroacetic acid salt of compound 3]	good inhibitory activity
O=C1CCN(c2ccc(N3CCN(CC4CCN(c5ccc(Nc6ccc(-c7cnc8cc(F)ccn78)c7c6C(=O)NC7)nc5)CC4)CC3)cc2F)C(=O)N1 [Trifluoroacetic acid salt of compound 2]	good inhibitory activity
O=C1CCN(c2cc3c(cc2F)N2CCN(CC4CCN(c5ccc(Nc6ccc(-c7cnc8cc(F)ccn78)c7c6C(=O)NC7)nc5)CC4)C[C@H]2CC3)C(=O)N1 [Trifluoroacetic acid salt of compound 6]	good inhibitory activity

* * *

assay-method-text: Pharmacokinetic test in rats
Type: in vivo, SD rats
condition-parameters: rat, plasma, po, i. g., 5 mg/kg
Counter-ions that a name gives are not always drawn.
test-readout: half-life (h)
Give bare numbers, in h.

Qu. Consider the compound N#Cc1ccn2c(-c3ccc(Nc4ccc(N5CCC(CN6CCN7c8cc(F)c(N9CCC(=O)NC9=O)cc8CC[C@@H]7C6)CC5)cn4)c4c3CNC4=O)cnc2c1 [Trifluoroacetic acid salt of compound 31] and give its recorded half-life.
Ans. 4.48

* * *

target-of-assay: HPK1 kinase (Homo sapiens)
Construct: purchased Carna 07-410
assay-method-text: HPK1 kinase assay (Km concentration ATP)
Assay type: biochemical
condition-parameters: Km concentration ATP; conclusion
Counter-ions that a name gives are not always drawn.
test-readout: inhibitory activity against HPK1 kinase (in words)

compound	result
O=C1CCC(c2ccc(N3CCN(CC4CCN(c5ccc(Nc6ccc(-c7cnc8cc(F)ccn78)c7c6C(=O)NC7)nc5)CC4)CC3)cc2F)C(=O)N1 (racemic) [Trifluoroacetic acid salt of compound 1]	good inhibitory activity
O=C1CCN(c2cc3c(cc2F)N2CCN(CC4CCN(c5ccc(Nc6ccc(-c7cnc8cc(F)ccn78)c7c6C(=O)NC7)nc5)CC4)C[C@@H]2CC3)C(=O)N1	good inhibitory activity
O=C1CCC(c2cc3c(cc2F)N2CCN(CC4CCN(c5ccc(Nc6ccc(-c7cnc8cc(F)ccn78)c7c6C(=O)NC7)nc5)CC4)C[C@@H]2CC3)C(=O)N1 (stereo partly drawn) [Trifluoroacetic acid salt of compound 4]	good inhibitory activity
